All values here come from paper PMC11051924.

Attribute: IC50
# Assay system: AChE (Electrophorus electricus, UniProt O42275)
# Sequence (O42275 24-633): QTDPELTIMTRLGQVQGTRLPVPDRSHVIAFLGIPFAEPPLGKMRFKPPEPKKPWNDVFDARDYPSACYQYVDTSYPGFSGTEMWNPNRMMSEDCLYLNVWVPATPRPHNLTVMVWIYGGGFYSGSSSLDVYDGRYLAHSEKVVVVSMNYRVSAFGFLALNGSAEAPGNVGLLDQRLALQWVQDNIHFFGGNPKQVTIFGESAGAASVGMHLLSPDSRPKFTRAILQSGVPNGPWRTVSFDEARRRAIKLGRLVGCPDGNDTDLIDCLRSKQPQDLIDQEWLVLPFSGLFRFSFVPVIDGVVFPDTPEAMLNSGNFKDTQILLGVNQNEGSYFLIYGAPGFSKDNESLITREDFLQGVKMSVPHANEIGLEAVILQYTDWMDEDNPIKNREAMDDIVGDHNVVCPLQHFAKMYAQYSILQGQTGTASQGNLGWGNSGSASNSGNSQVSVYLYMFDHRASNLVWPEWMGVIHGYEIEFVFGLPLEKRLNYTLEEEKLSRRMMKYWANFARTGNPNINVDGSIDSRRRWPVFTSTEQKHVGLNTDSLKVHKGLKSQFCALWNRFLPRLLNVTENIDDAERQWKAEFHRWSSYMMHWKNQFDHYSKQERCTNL
# Test name: biochemical
# Parameters: species or system electric eel
# Experimental context: AChE from electric eel; mean of three independent determinations; read-out: IC50 (μM) ± SEM AChE
Endpoint name: IC50 (µM)

- Compound: "Cn1c(SCCNc2c3c(nc4cc(Cl)ccc24)CCCC3)nc(-c2ccncc2)cc1=O [Compound 16a]"
  Endpoint name: "IC50"
  Measured result: 2.3
- Compound: "Cn1c(SCCNc2c3c(nc4ccc(Br)cc24)CCCC3)nc(-c2ccncc2)cc1=O [Compound 16b]"
  Endpoint name: "IC50"
  Measured result: 20
- Compound: "Cn1c(SCCNc2c3c(nc4ccc(Cl)cc24)CCCC3)nc(-c2ccncc2)cc1=O [Compound 16c]"
  Endpoint name: "IC50"
  Measured result: 10.3
- Compound: "Cn1c(NCCSSCCNc2c3c(nc4ccc(Br)cc24)CCCC3)nc(-c2ccncc2)cc1=O [Compound 18b]"
  Endpoint name: "IC50"
  Measured result: 2.13
